Experiment: yeast display, Sf9 membrane polyspecificity reagent, FACS + sequencing; frameworks hold sequencing errors
measured_attribute: polyreactivity (PSR sort gate)

QVQLVESGGGLVQAGGSLRLSCAASGFIFYRYAMGWYRQAPGKERELVAAISYSGGSTYYADSVKGRFTISRDNAKNTVYLQMISLKPEDTAVYYCAAGSKYRYDYWGQGTQVTVSS	high polyreactivity
QVQLVESGGGLVQAGGTLRLSCAASGSTFYSYAMGWYRQAPGKERELVAAISGRGGTTYYADSVKGRFTISRDNAKNTVYLQMNSLKPEDTAVYYCAAEGWDWWTDDDYWGQGTQVTVSS	high polyreactivity
QVQLVESGGALVQAGGSLRLICAASGRIFQRYTKGWYRQAPGKERELVAAITYSGGRTYYADSVKGRFTISRDNAKNTVYLQMNSLKPEDTAVYYCYAAYFNWYTHVWNDYWGQGTQVTVSS	high polyreactivity
QVQLVESGGGLVQAGGSLRLSCAASGFTLHSYAMGWYRQAPGKERELVAAITTGGSTYYADSVKGRFTISRDNAKNTVYLQMNSLKPEDTAVYYCAADVPGNYRKYRYGRASSHDYWGQGTQVTVSS	low polyreactivity
QVHLVESGGGLVQAGGSLRLSFAASGLIFFVYAMGWYRQAPGIERELVAGIRSSGGSTYYADSVKGRFTISRDNAKNTVYLQMNSLKPEDTAVYYCAARYRYGWAYRKGGDYWGQGTKVTVSS	high polyreactivity

[Q] Look up polyreactivity (PSR sort gate): QVQLVESGGGLVQAGGSLRLSCAASGITFKYYTMGWYRPAPGKERELVAAITSRAGRTYADSVKGRFTISRDNAKNTVYLQMNSLKPEDTAVYYCDKKWRGNTYLYDYWGQGTQVTVSS
[A] high polyreactivity

[Q] What about this sequence? QVQLVESGGGLVQAGGSLRLSCAASGRIFGLNAMGWYRQAPGKEREFVAAIRWRGGSTYYADSVKGRFTISRDNAKNTVYLQMNSLKPEDTAVYYCAADRNLGVSRYGYWGQGTQVTVSS
[A] high polyreactivity

[Q] What about this sequence? QVQLVESGGGLVQAGGSLRLSCAASGSTFRRYAMGWYRQAPGKERELVAGISKRGVSTYYADSVKGRFTISRDNAKNTVYLQMNSLKPEDTAVYYCAAEWTVSKYDYWGQGTQVTVSS
[A] low polyreactivity

----------
Test: yeast display, Sf9 membrane polyspecificity reagent, FACS + sequencing; frameworks hold sequencing errors
measured_attribute: polyreactivity (PSR sort gate)

QVQLVESGGGLVQAGGSLRLSCAASGSSFSRYDMGWYRQAPGKERELVATITRPGRTYYADSVKGRFTISRDNATKTVYLQMNSLKPEDTAVYYCAKDAGKTYYVDGSLEYDSWGQGTQVTVSS	low polyreactivity
QVQLVESGGGLVQAGGSLRLSCAASGRTFWTNAMGWYRQAPGKERELVASINWSGGGTYYADSVKGRFTISRDNAKNTVYLQMNSLKPEDTAVYYCNVYSNPEKEYEYWGQGTQVTVSS	low polyreactivity
QVQLVESGGGLVQAGGSLRLSCAASGRIFGVYAMGWYRQAPGKERELVAAISSGASTYYADSVKGRFTISRDNAKNTVYLQMNSLKPEDTAVYYCAKSVKGGTGYYYWGQGTQVTVSS	low polyreactivity
QVQLQESGGGLVQAGGSLRLSCAASGSISRLDYMGWYRQASGKERELVAAIDNGSTTYYADSVKGRLTISRDNAKYTVYLQMNSLKTEDTAVYFCAAVRGRGGTHAYWGQGTQVTVSG	low polyreactivity

----------
Test: yeast display, Sf9 membrane polyspecificity reagent, FACS + sequencing; frameworks hold sequencing errors
measured_attribute: polyreactivity (PSR sort gate)

The examples below pair each entry with its known result.
QVQLVESGGGLVQAGGSLRLSCAASGFTLEPNTMGWYRQAPGKERELVAGISWSGGSTYYADSVKGRFTISRDNAKNTVYLQMNSLKPEDTAVYYCNDDSGWFCYDYWGQGTQVTVSS	low polyreactivity
QVQLVESGVGLVQAGGSLRLSCAASGSTFGTYDMGWFRQAPGKERELVAAITWIGDTTYYADSVKGRFTISRDNAKNTVYLQMNSLIPEDTAVYYCAAEPNYQYYGPLGYDYWGQGTQVTVSS	low polyreactivity
QVQLVESGGGLVQAGGSLRISCAASGRTLRPNAMGWYRQAPGKERELVAAITWSGGRTYYADSVKGRFTISRDNAKNTVYLQMNSLKPGDTAVYYCAADYGYYRGGVYFQKLKFDYWGQGTQVTVSS	high polyreactivity
QVQLVESGGGLVQAGGSLRLSCAASGRIFASYTMGWYRQAPGKETELVAAISWRGDGTYYADSVKGRFTISRDYAKNTVYLQMNSLKPEDTAVYYCAADYVYYYHEYDYWGQGTQVTVSS	low polyreactivity
QVQLVESGGGLVQAGGSLRVSCAASGFTFSDYAMGWYRQAPGKESELVAGISSGGSTNYADSVKGLFTISRDNAKNTVYLQMNSLKPDDTAVYYCAADLYATWSYFFTWLDYWGQGTQVTVSS	high polyreactivity
QVQLVESGGGLVQAGGSLRLSCAASGRTIPSNAMGWYRQAPGKERELVAAITRSGGSTKYADSVKGRFTISRDNAKNTVYLQMNSLKPEDTAVYYCAGRYHSGSQVWYNYWGQGSQVTVSS	high polyreactivity

[Q] Look up polyreactivity (PSR sort gate): QVQLVESGGGLVQAGGSLRLSCAASGRTFYAYTMGWYRTAPGKERELVAAITRRGGSTYYADSVKGRFTISRDNAKNTVYLQMNSLKPEDTAVYYCAASYSHRNYGLTYDYWGQGTQVTVSS
[A] high polyreactivity

[Q] What about this sequence? QVQHVDTGGGLVQAGGSLRLSCAASGSIFGRYAMGWSRQAPGKERELVASINWNSGSTYYADSVKGRFTISRDNAKYTVYLQMNSLKPEDTAVYYCAAAALGYYGYRGFDYWGQGTQVTVSS
[A] low polyreactivity

[Q] What about this sequence? QVQLVESGGGLVQAGGSLRLSCAASGFTFVRNALGWYRPAPGKERELVAAITDAGRTTYADSVKGRFTISRDNAKNTVYLQMNSLKPEDTAVYYCAKGKWWGWPWYSMDYWGQGTQVTVSS
[A] low polyreactivity

[Q] What about this sequence? QVQLVESGGGLVQAGGSLRLICAASGFISVRNAMGWYRQGPGKERELGAAISSGDTTDYADSVKGSFTISRDNAKNTVYLQMNSLKPEDTAVYYCAAVYYGRYYYWGQGTQVTVSS
[A] low polyreactivity

[Q] What about this sequence? QVQLVESGGGLVQAGGSLRLSCAATGLFDVYAMGGYRQAPRKERELVAAISSDGSTYYADSVKGRFTISRDNAKNTVYLQMNSLKPEDTAVYYCNADTSGSPYLQGYVGYGYWGQGTQVTVSS
[A] low polyreactivity

----------
Assay: yeast display, Sf9 membrane polyspecificity reagent, FACS + sequencing; frameworks hold sequencing errors
measured_attribute: polyreactivity (PSR sort gate)

The examples below pair each entry with its known result.
QVQLVESGGGLVQAGGSLRLSCAASGITFGYYAMGWYRQAPGKERELVAAISSSGGSTYYADSVKGRFTISRDNAKNTVYLQMNSLKPEDTAVYFCAARYRKYSWYDYWGQGTQVTVSS	high polyreactivity
QVQLVESGGGLVQAGGSLRLSCAASGSIFVYYVMGWYRQAPGKERELVAAISSGGRTYYADSVKGRFTISRDNAKNTVYLQMNSLKPEDTAVYYCAARPIRPASEVNYWGQGTQVTVSS	low polyreactivity
QVQLVESGGGIFQAGGSLRLSCAASGFTFQYYAMGWYRQAPGKERELVAAISRRGGRTDYADSVKGRFTISRDNAKNTVYLQMNSLKPEDTAVYYCAAAVASPYDYWGLGTQVTVSS	high polyreactivity
QVQLVESGGGLVQAGGSLRLSCAASGSTFSRYSMGWYRQAPGKERELVAAITGRGGRTYYADSVKGRFTISRDNAKKTVYLQLNSLKPEDTAVYYCAAYYGPYRSLYYYWGQGNQVTVSS	high polyreactivity
QVQIVESGGGLVQAGGSLRVSCAPSGRTFLPYGMGWYRQAPGKEWELVASITSGGSTNYADSVKGRFTISRDNAQNTVYLQMNSLKPEDTAVYYCNKQTIPEWPWVKYSNGYDHWGHGTQVTVSS	low polyreactivity
QVQLVESGGGLVQAGGSLRLSCAASGSTFLFNGMGWYRQAPGKERELVAAISRSGGRTYYADSVKGRFTISRDNAKNTVYLQMNSLKPEDTAVYYCAAKYRLSGGYGVDYWGQGTQVTVSS	high polyreactivity
QVQLVESGGGLVQAGGSLRLSCAASGRTLRGNAMGWYRQAPGKERELVAVITRRGGSTYYADSVKGRFTISRDNAKNTFYLQMNSLKPEDTAVYYCAAVPYYYKYDYWGQGTQVTVSS	high polyreactivity
QVQLVESGAGLVQAGGSLRLSCAASGFIFAGNAMGWYIQAPGKERELVAAITRRGGSTHYADSVKGRFTISRDKAKNTVYLQMNSLKPEDTAVYYCNAAVQPPLSDYWGQGTQVTVSS	low polyreactivity
QVQLQESGRGLVQAGGSLRLSCAASGYISYFVGMGWYRQAPGKEREFVASIADGSNTYYADSVKGRFTISRDNAKNTVCLQRNSLKPEVTAVYYCAVEDSWTYRFDYWGEGTQVTVSS	high polyreactivity
QVQLVESGGGLVQAGGSLRVSCAASGGIFGLYTMGWYRQAPGTERELVAGISKRGTRTRYADSVKGRFTISRDNAKNTVYLQMNSLKPDDTAVYYCNADYYVSKLDDWGQGTQVTVSS	high polyreactivity

Could you now consider this next sequence?
[Q] Look up polyreactivity (PSR sort gate): QVQLVESGGGLVQAGGSLRLSCAASGSTSYVYAMGWYRQAPGKERELVAANSGSGGRTYYADSVKGRFTISRDNAKNTVYLQMNSLKPEDTAVYYCNALTRPSYPFDYWGLGTQVTVSS
[A] high polyreactivity
